MEASURED_ATTRIBUTE: melting point

                                    compound  measured_attribute    measurement
 0  Cc1ccccc1C(Oc1cc(OCc2ccoc2)ccc1C#N)C(=O)O (racemic)       melting point  141 to 143 °C
 1  CCOC(OCC)c1cc(NC(c2ccccc2)(c2ccccc2)c2ccccc2)c(F)c(C(C)(C)C)n1       melting point  168 to 170 °C
 2  CN1C(=O)C(C(=O)OCCN2CCOCC2)N=C(c2ccccc2)c2cc(Cl)ccc21 (centres undefined)       melting point  162 to 166 °C
 3  O=C(c1ccc(Cl)cc1)C(O)c1ccc(Cl)cc1 (centres undefined)       melting point          73 °C
 4  COC(=O)c1cc(-c2cccs2)cc(C)c1NS(=O)(=O)c1ccc(OC)cc1       melting point          91 °C
 5  Cc1cccc(-c2[nH]c(C(C)C)nc2-c2cccc(-c3ccccn3)c2)n1       melting point   97 to 100 °C
 6  CCc1c(OC)cc(C)c(C=CC(C)=CC=CC(C)=CC(=O)O)c1C       melting point  197 to 198 °C
 7              COc1ccc2ncc(CO)c(OC(C)C)c2c1       melting point    66 to 68 °C
 8  COC(=O)[C@@H]1C[C@@H](Br)C(=O)[C@@H]2[C@@]3(C)C[C@@H](c4ccoc4)OC(=O)[C@H]3CC[C@]21C       melting point  170 to 173 °C
 9     O=c1ccn(C2=CCN(Cc3ccc(Br)cc3)C=C2)cc1       melting point  166 to 168 °C
10  CCN1CCc2ccc(Nc3ncc(C(F)(F)F)c(Nc4ccccc4C(=O)NC)n3)cc2CC1       melting point         226 °C
11              CCO/C=C/C(=O)Nc1cccc(Cl)c1OC       melting point    98 to 99 °C
12  CN(C(=O)Cn1c(-c2ccc(C(F)(F)F)cc2)nc2cccnc21)c1ccccc1       melting point  158 to 159 °C
13  COc1ccc(N(N)c2nc(OCc3cccc(OC)c3)ncc2F)cc1       melting point   96 to 100 °C
14               C=C(C)COc1cc(C(=O)OC)ccc1OC       melting point    62 to 63 °C
15  Cc1ccc(Cn2c(=O)c3c(N4CCN(C)CC4)cc(Cl)cc3n(Cc3ccccc3)c2=O)cc1C       melting point    96 to 99 °C
16  Cc1cc(C)cc(-c2ccc3c(c2)CC[C@H]2N(C)C(=O)CC[C@]32C)c1       melting point  129 to 130 °C
17  Cc1cc(S(N)(=O)=O)ccc1NC(=O)Cc1ccc(Oc2cc(Cl)cc(C#N)c2)c(Br)c1       melting point  215 to 216 °C
18  CCc1ccc(S(=O)(=O)n2c(COC(C)(C)C(=O)O)cc3nc(Cl)ccc32)cc1       melting point         172 °C
